Assignment: determine reported phage ELISA signal ratio for the given binders.
Target: T1, GNAZ 2-355 G-alpha (domain begin residue: 2, domain end residue: 355), P19086
T1 chain: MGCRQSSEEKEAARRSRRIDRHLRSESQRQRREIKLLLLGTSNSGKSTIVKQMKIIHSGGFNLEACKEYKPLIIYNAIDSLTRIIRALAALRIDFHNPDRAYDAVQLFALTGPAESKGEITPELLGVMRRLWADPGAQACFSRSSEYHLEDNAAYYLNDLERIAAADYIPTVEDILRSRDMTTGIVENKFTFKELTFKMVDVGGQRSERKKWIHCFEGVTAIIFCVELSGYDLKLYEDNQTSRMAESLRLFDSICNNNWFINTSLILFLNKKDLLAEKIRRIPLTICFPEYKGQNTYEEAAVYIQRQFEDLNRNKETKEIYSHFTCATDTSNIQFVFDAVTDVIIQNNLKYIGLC
Assay: phage ELISA signal ratio (GST-PRM binding over GST background); higher = stronger binding of peptide-phage to the PRM
Answers are plain numbers.

# example entries with known answers
binder: NEWDIPLLDLTMLPWA
phage ELISA signal ratio: 8.79
//
binder: EDSGLEWFMQWSHGYV
phage ELISA signal ratio: 13.9
//
binder: PGSENEAEYWFNIMRQ
phage ELISA signal ratio: 19.7

The following binders each have a reported value; give each one's phage ELISA signal ratio.
1. DMTRAVFWEFWDHLDV
2. DVEPLWSQWVTWDWQE
3. MPFDHWTMDDVEMLVL
4. SMEWWSKGDVSLIDIS

[out]
1. 7.78
2. 11.1
3. 17.5
4. 4.45
